- system: T1, Recombinant Human DLL4 (delta-like protein 4) (human, UniProt Q9NR61 27-524)
- T1 construct: Bought recombinant protein (R&D Systems Cat#1506-D4/CF); also called rHuman DLL4; Delta-like 4
- experiment: ECL (Meso Scale Discovery) binding assay on immobilised recombinant human DLL4; Fab concentration not given
measured-endpoint: ECL signal
Lab note: write the figure by itself, no unit.

Below are worked cases with known answers.
Fab VH5-51_IGHD5-18*01>3_IGHJ4*01 G100K/G104T (H:KT) & V3-4_IGLJ1*01 T78E (Fab, V domains shown, Fab with CH1 and lambda CL from the expression plasmids; also called G100K/G104T & T78E) VH: EVQLVQSGAEVKKPGESLKISCKGSGYSFTSYWIGWVRQMPGKGLEWMGIIYPGDSDTRYSPSFQGQVTISADKSISTAYLQWSSLKASDTAMYYCARRKYSYTYDYFDYWGQGTLVTVSS VL: QTVVTQEPSFSVSPGGTVTLTCGLSSGSVSTSYYPSWYQQTPGQAPRTLIYSTNTRSSGVPDRFSGSILGNKAALTIEGAQADDESDYYCVLYMGSGISYVFGTGTKVTVL; 10600
Fab VH5-51_IGHD5-18*01>3_IGHJ4*01 G100K/G104T (H:KT) & V3-4_IGLJ1*01 T78L (Fab, V domains shown, Fab with CH1 and lambda CL from the expression plasmids; also called G100K/G104T & T78L) VH: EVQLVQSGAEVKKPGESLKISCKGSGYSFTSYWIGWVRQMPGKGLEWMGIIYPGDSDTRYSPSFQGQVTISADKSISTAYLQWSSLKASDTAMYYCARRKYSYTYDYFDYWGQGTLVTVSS VL: QTVVTQEPSFSVSPGGTVTLTCGLSSGSVSTSYYPSWYQQTPGQAPRTLIYSTNTRSSGVPDRFSGSILGNKAALTILGAQADDESDYYCVLYMGSGISYVFGTGTKVTVL; 9550
Fab VH5-51_IGHD5-18*01>3_IGHJ4*01 G100K/G104T (H:KT) & V3-4_IGLJ1*01 (Fab, V domains shown, Tested as Fab made in E. coli: VH joined to CH1 (Plasmid A, His and Flag tags), VL joined to lambda CL (Plasmid E); also called H:KT & L:wt; KT double mutant) VH: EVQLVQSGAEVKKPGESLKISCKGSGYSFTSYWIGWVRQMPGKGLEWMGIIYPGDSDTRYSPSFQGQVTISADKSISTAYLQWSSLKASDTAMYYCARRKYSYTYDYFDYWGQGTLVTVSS VL: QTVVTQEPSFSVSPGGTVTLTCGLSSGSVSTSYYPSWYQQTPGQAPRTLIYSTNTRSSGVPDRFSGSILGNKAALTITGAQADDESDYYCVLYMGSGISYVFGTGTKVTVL; 9360
Fab VH5-51_IGHD5-18*01>3_IGHJ4*01 G100K/G104T (H:KT) & V3-4_IGLJ1*01 S25A, A116T (Fab, V domains shown, also called G100K/G104T & S25A/A116T; named S52A/A116T in the running text) VH: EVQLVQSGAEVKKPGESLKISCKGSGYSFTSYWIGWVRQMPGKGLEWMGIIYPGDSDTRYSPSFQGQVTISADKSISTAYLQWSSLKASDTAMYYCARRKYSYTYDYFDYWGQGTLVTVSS VL: QTVVTQEPSFSVSPGGTVTLTCGLASGSVSTSYYPSWYQQTPGQAPRTLIYSTNTRSSGVPDRFSGSILGNKAALTITGAQADDESDYYCVLYMGSGISYVFGTGTKVTVLG; 12200

We next turn to a different binder, shown below.
Query string: # query: ECL signal of entry Fab VH5-51_IGHD5-18*01>3_IGHJ4*01 G100K/G104T (H:KT) & V3-4_IGLJ1*01 G23A, N175K (Fab, V domains shown, also called G100K/G104T & G23A/N175K) VH: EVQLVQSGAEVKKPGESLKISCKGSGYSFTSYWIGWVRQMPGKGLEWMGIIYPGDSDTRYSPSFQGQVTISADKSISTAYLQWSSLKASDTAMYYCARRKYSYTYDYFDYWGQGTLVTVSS VL: QTVVTQEPSFSVSPGGTVTLTCALSSGSVSTSYYPSWYQQTPGQAPRTLIYSTNTRSSGVPDRFSGSILGNKAALTITGAQADDESDYYCVLYMGSGISYVFGTGTKVTVLG
Result string: 17800
